tested on: six vancomycin-susceptible strains of staphylococci and enterococci; experiment: Effect of human serum on the MIC, serial dilution assay; format: cell-based; settings: indication of the degree of serum binding
Here the recorded ratio of the MIC in the presence of added serum to the MIC in the absence of added serum is given for each entry.
Please respond with just the number, no unit label.

| molecule | valueMeasured |
| --- | --- |
| CCCCCCCCCCN[C@@]1(C)C[C@H](O[C@H]2[C@H](Oc3c4cc5cc3Oc3ccc(cc3Cl)[C@@H](O[C@H]3C[C@](C)(N)[C@@H](O)[C@H](C)O3)[C@@H]3NC(=O)[C@H](NC(=O)[C@@H]5NC(=O)[C@H](CC(N)=O)NC(=O)[C@H](NC(=O)[C@@H](CC(C)C)NC)[C@H](O)c5ccc(c(Cl)c5)O4)c4ccc(O)c(c4)-c4c(O)cc(O)cc4[C@@H](C(=O)O)NC3=O)O[C@H](CO)[C@@H](O)[C@@H]2O)O[C@@H](C)[C@@H]1O | 0.76 |
| CNC(CC(C)C)C(=O)NC1C(=O)NC(CC(N)=O)C(=O)NC2C(=O)NC3C(=O)NC(C(=O)NC(C(=O)O)c4cc(O)cc(O)c4-c4cc3ccc4O)C(OC3CC(C)(N)C(O)C(C)O3)c3ccc(c(Cl)c3)Oc3cc2cc(c3OC2OC(CO)C(O)C(O)C2OC2CC(C)(NCc3ccc(Cl)cc3)C(O)C(C)O2)Oc2ccc(cc2Cl)C1O (stereo not shown) | 2.0 |

Req: Consider the molecule shown here: CNC(CC(C)C)C(=O)NC1C(=O)NC(CC(N)=O)C(=O)NC2C(=O)NC3C(=O)NC(C(=O)NC(C(=O)O)c4cc(O)cc(O)c4-c4cc3ccc4O)C(OC3CC(C)(N)C(O)C(C)O3)c3ccc(c(Cl)c3)Oc3cc2cc(c3OC2OC(CO)C(O)C(O)C2OC2CC(C)(NCc3ccc(Br)cc3)C(O)C(C)O2)Oc2ccc(cc2Cl)C1O (stereo not shown) What is its recorded ratio of the MIC in the presence of added serum to the MIC in the absence of added serum?
Resp: 2.3

Req: And then "CCCCCCCCN[C@@]1(C)C[C@H](O[C@H]2[C@H](Oc3c4cc5cc3Oc3ccc(cc3Cl)[C@@H](O[C@H]3C[C@](C)(N)[C@@H](O)[C@H](C)O3)[C@@H]3NC(=O)[C@H](NC(=O)[C@@H]5NC(=O)[C@H](CC(N)=O)NC(=O)[C@H](NC(=O)[C@@H](CC(C)C)NC)[C@H](O)c5ccc(c(Cl)c5)O4)c4ccc(O)c(c4)-c4c(O)cc(O)cc4[C@@H](C(=O)O)NC3=O)O[C@H](CO)[C@@H](O)[C@@H]2O)O[C@@H](C)[C@@H]1O" , what is it?
Resp: 0.58

From: patent US5591714A
